What MTS assay result, run 8 was measured for each of the following?
system: MiaPaCa-2 cells; assay: MTS assay of MiaPaCa2 cultures, single 50 μM dose; type: cell-based, human; conditions: MiaPaCa2, 50 μM, 24 hours, run 8
Give bare numbers.

Here is how some compounds turned out for MTS assay result, run 8.
Cc1c(C)c2c(c(C)c1OC(=O)CCC(=O)O)CC[C@@](C)(CCC[C@H](C)CCC[C@H](C)CCCC(C)C)O2 [TS, tocopherol succinate]: 0.228
Cc1c(O)cc2c(c1C)O[C@](C)(CCC[C@H](C)CCC[C@H](C)CCCC(C)C)CC2 [T gamma]: 0.263
CC(C)=CCC/C(C)=C/CC/C(C)=C/CC[C@]1(C)CCc2c(C)c(O)cc(C)c2O1 [T3 beta, beta tocotrienol]: 0.19
Cc1c(C)c2c(c(C)c1O)CC[C@@](C)(CCC[C@H](C)CCC[C@H](C)CCCC(C)C)O2 [T alpha, alpha tocopherol]: 0.254

Each compound below has a reported value. Please supply its MTS assay result, run 8.
1. CC(C)=CCC/C(C)=C/CC/C(C)=C/CC[C@]1(C)CCc2cc(O)cc(C)c2O1 [T3 delta, delta tocotrienol]
2. CC(C)=CCC/C(C)=C/CC/C(C)=C/CC/C(C)=C/CO [GG, geranylgeraniol]
3. CC(C)=CCC/C(C)=C/CC/C(C)=C/CC[C@]1(C)CCc2cc(O)c(C)c(C)c2O1 [T3 gamma, gamma tocotrienol]
4. O=C(O)CCC(=O)O [SA, succinic acid]

output:
[0.167, 0.178, 0.162, 0.204]

###

tested on: MiaPaCa-2 cells; assay: MTS assay of MiaPaCa2 cultures, single 50 μM dose; type: cell-based, human; conditions: MiaPaCa2, 50 μM, 48 hours, run 4
quantity kind: MTS assay result, run 4
One number for each entry.

Here is how some compounds turned out for MTS assay result, run 4.
Cc1c(C)c2c(c(C)c1OC(=O)CCC(=O)O)CC[C@@](C)(CCC[C@H](C)CCC[C@H](C)CCCC(C)C)O2 [TS, tocopherol succinate]: 0.237
Cc1c(C)c2c(c(C)c1O)CC[C@@](C)(CCC[C@H](C)CCC[C@H](C)CCCC(C)C)O2: 0.269
CC(C)=CCC/C(C)=C/CC/C(C)=C/CC[C@]1(C)CCc2c(C)c(O)cc(C)c2O1: 0.223

Now examine the next entry.
# MTS assay result, run 4 of O=C(O)CCC(=O)O = 0.304

###

tested on: MiaPaCa-2 cells; assay: MTS assay of MiaPaCa2 cultures, single 50 μM dose; format: cell-based, human; details: MiaPaCa2, 50 μM, 24 hours, run 3
quantity kind: MTS assay result, run 3
Give bare numbers.

Here is how some molecules turned out for MTS assay result, run 3.
Cc1c(O)cc2c(c1C)O[C@](C)(CCC[C@H](C)CCC[C@H](C)CCCC(C)C)CC2 [T gamma]: 0.268
CC(C)=CCC/C(C)=C/CC/C(C)=C/CC[C@]1(C)CCc2cc(O)c(C)c(C)c2O1 [T3 gamma, gamma tocotrienol]: 0.141
Cc1c(C)c2c(c(C)c1O)CC[C@@](C)(CCC[C@H](C)CCC[C@H](C)CCCC(C)C)O2 [T alpha, alpha tocopherol]: 0.253

Now examine the next entry.
# MTS assay result, run 3 of CC(C)=CCC/C(C)=C/CC/C(C)=C/CC/C(C)=C/CO [GG, geranylgeraniol] = 0.175

###

What MTS assay result, run 3 was measured for each of the following?
tested on: MiaPaCa-2 cells; assay: MTS assay of MiaPaCa2 cultures, single 50 μM dose; assay type: cell-based, human; details: MiaPaCa2, 50 μM, 24 hours, run 3
Answers are plain numbers.

Here is how some compounds turned out for MTS assay result, run 3.
O=C(O)CCC(=O)O: 0.25
CC(C)=CCC/C(C)=C/CC/C(C)=C/CC[C@]1(C)CCc2cc(O)cc(C)c2O1: 0.171
Cc1c(C)c2c(c(C)c1OC(=O)CCC(=O)O)CC[C@@](C)(CCC[C@H](C)CCC[C@H](C)CCCC(C)C)O2 [TS, tocopherol succinate]: 0.226

Now examine the next entry.
# MTS assay result, run 3 of CC(C)=CCC/C(C)=C/CC/C(C)=C/CC[C@]1(C)CCc2c(C)c(O)cc(C)c2O1 = 0.184

###

system: MiaPaCa-2 cells; experiment: MTT assay of MiaPaCa2 cultures, single 50 μM dose; assay type: cell-based, human; details: MiaPaCa2, 50 μM, 48 hours, run 7
quantity kind: MTT assay result, run 7
Numbers only.

CC(C)=CCC/C(C)=C/CC/C(C)=C/CC[C@]1(C)CCc2cc(O)cc(C)c2O1: 0.269

Each compound below has a reported value. Please supply its MTT assay result, run 7.
1. CC(C)=CCC/C(C)=C/CC/C(C)=C/CC/C(C)=C/CO
2. Cc1c(O)cc2c(c1C)O[C@](C)(CCC[C@H](C)CCC[C@H](C)CCCC(C)C)CC2
3. CC(C)=CCC/C(C)=C/CC/C(C)=C/CC[C@]1(C)CCc2c(C)c(O)cc(C)c2O1
4. Cc1c(C)c2c(c(C)c1O)CC[C@@](C)(CCC[C@H](C)CCC[C@H](C)CCCC(C)C)O2
5. O=C(O)CCC(=O)O
6. CC(C)=CCC/C(C)=C/CC/C(C)=C/CC[C@]1(C)CCc2cc(O)c(C)c(C)c2O1

output:
[0.341, 0.348, 0.239, 0.35, 0.266, 0.137]

# MTT assay result, run 7 of Cc1c(C)c2c(c(C)c1OC(=O)CCC(=O)O)CC[C@@](C)(CCC[C@H](C)CCC[C@H](C)CCCC(C)C)O2 [TS, tocopherol succinate] = 0.185

###

System: MiaPaCa-2 cells
Experiment: MTT assay of MiaPaCa2 cultures, single 50 μM dose
Type: cell-based, human
Details: MiaPaCa2, 50 μM, 120 hours (5 days), run 4
Protocol: MiaPaCa-2, BxPc-3, and HPDE6-C7 cells were cultured as described above, and treated with a single 50 μM dose of vehicle (ethanol extracted olive oil), T3 alpha (alpha tocotrienol), T3 beta (beta tocotrienol), T3 gamma (gamma tocotrienol), T3 delta (delta tocotrienol), T alpha (alpha tocopherol), T beta (beta tocopherol), TS (tocopherol succinate), GG (geranylgeraniol), SA (succinic acid). […] Cell viability was measured using MTT assay at preselect times of 48 or 120 hours after treatment.
What MTT assay result, run 4 was measured for each of the following?
Answers are plain numbers.

Each molecule below has a reported value. Please supply its MTT assay result, run 4.
1. CC(C)=CCC/C(C)=C/CC/C(C)=C/CC/C(C)=C/CO
2. CC(C)=CCC/C(C)=C/CC/C(C)=C/CC[C@]1(C)CCc2c(C)c(O)cc(C)c2O1
3. CC(C)=CCC/C(C)=C/CC/C(C)=C/CC[C@]1(C)CCc2cc(O)c(C)c(C)c2O1
4. Cc1c(C)c2c(c(C)c1OC(=O)CCC(=O)O)CC[C@@](C)(CCC[C@H](C)CCC[C@H](C)CCCC(C)C)O2 [TS, tocopherol succinate]
5. O=C(O)CCC(=O)O
6. CC(C)=CCC/C(C)=C/CC/C(C)=C/CC[C@]1(C)CCc2cc(O)cc(C)c2O1

output:
[1.744, 1.154, 0.089, 0.714, 1.609, 1.337]

Each molecule below has a reported value. Please supply its MTT assay result, run 4.
1. Cc1c(O)cc2c(c1C)O[C@](C)(CCC[C@H](C)CCC[C@H](C)CCCC(C)C)CC2
2. Cc1c(C)c2c(c(C)c1O)CC[C@@](C)(CCC[C@H](C)CCC[C@H](C)CCCC(C)C)O2

output:
1. 1.625
2. 1.619

###

Tested on: SW1990 pancreatic cancer cells
Assay: MTS assay of SW1990 cultures, single 50 μM dose
Type: cell-based, human
Details: SW1990, 50 μM, 24 hours, run 4
Protocol: SW1990 pancreatic cancer cells […] were cultured in complete DMEM media containing 10% fetal bovine serum (FBS) and 1% penicillin-streptomycin, and 1% L-glutamine. BxPc-3 pancreatic cancer cells were cultured in complete RPMI media containing 10% fetal bovine serum (FBS), and 1% penicillin-streptomycin, 1% HEPES buffer, 1% sodium pyruvate and 1% L-glutamine. […] Cell viability was measured using MTS assay at preselect times of 24, 48, or 72 hours after treatment.
quantity kind: MTS assay result, run 4
One number for each entry.

Here is how some compounds turned out for MTS assay result, run 4.
CC(C)=CCC/C(C)=C/CC/C(C)=C/CC[C@]1(C)CCc2cc(O)cc(C)c2O1 [T3 delta, delta tocotrienol]: 0.126
CC(C)=CCC/C(C)=C/CC/C(C)=C/CC[C@]1(C)CCc2c(C)c(O)cc(C)c2O1 [T3 beta, beta tocotrienol]: 0.123
Cc1c(O)cc2c(c1C)O[C@](C)(CCC[C@H](C)CCC[C@H](C)CCCC(C)C)CC2 [T gamma]: 0.154
Cc1c(C)c2c(c(C)c1O)CC[C@@](C)(CCC[C@H](C)CCC[C@H](C)CCCC(C)C)O2 [T alpha, alpha tocopherol]: 0.166
O=C(O)CCC(=O)O [SA, succinic acid]: 0.152
CC(C)=CCC/C(C)=C/CC/C(C)=C/CC[C@]1(C)CCc2cc(O)c(C)c(C)c2O1 [T3 gamma, gamma tocotrienol]: 0.143
Cc1c(C)c2c(c(C)c1OC(=O)CCC(=O)O)CC[C@@](C)(CCC[C@H](C)CCC[C@H](C)CCCC(C)C)O2 [TS, tocopherol succinate]: 0.158

Now examine the next entry.
# MTS assay result, run 4 of CC(C)=CCC/C(C)=C/CC/C(C)=C/CC/C(C)=C/CO [GG, geranylgeraniol] = 0.137
